- Test system: PPARg homodimer (NR concentration 180 nM)
- experiment: PBM binding z-score (relative to random genomic background probes); higher = stronger binding; sequences stand for … in GC…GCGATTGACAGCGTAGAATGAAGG
# label = yes (1) if PBM binding z-score >= 0.7 else no (0)

Consider the following illustrative entries.
monomer-sequence: AGTCGAAGTTCAGGACGAGGTAACGTAAAGCACG
discrete-label: no (0)
--
monomer-sequence: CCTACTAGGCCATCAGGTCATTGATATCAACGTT
discrete-label: yes (1)
--
monomer-sequence: CAAGCTAGGTCACCGGAAGGTCAAAGTCCGCATG
discrete-label: yes (1)
--
monomer-sequence: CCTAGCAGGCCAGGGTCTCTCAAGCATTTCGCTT
discrete-label: no (0)
--
monomer-sequence: CGAACTAGGTGAGAACAGGACAGTGAAGGATGAT
discrete-label: no (0)

Incoming: # bool: PBM binding z-score of GGTACGAGGGCAAGTTGATAGCAGAGTTTGATGG >= 0.7
Outgoing: no (0)

Incoming: # bool: PBM binding z-score of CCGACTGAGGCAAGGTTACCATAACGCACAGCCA >= 0.7
Outgoing: no (0)

Incoming: # bool: PBM binding z-score of TTACCAAGGTGAAGGTCGGTGATCCCTCTGTAGA >= 0.7
Outgoing: no (0)

Incoming: # bool: PBM binding z-score of CCTACTGCGCCAAGGTCATTGATCAGTCAAAGCA >= 0.7
Outgoing: yes (1)

Incoming: # bool: PBM binding z-score of AGTGAAAGTTCATCTAGGTAACGTAAGATATGCT >= 0.7
Outgoing: yes (1)

Incoming: # bool: PBM binding z-score of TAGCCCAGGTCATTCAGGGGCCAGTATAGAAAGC >= 0.7
Outgoing: yes (1)

Incoming: # bool: PBM binding z-score of TCATATAGCTAAACAGGTGAAAGTCCGTAAGTTA >= 0.7
Outgoing: no (0)

* * *

- System: RARb homodimer (NR concentration 270 nM)
- experiment: PBM binding z-score (relative to random genomic background probes); higher = stronger binding; sequences stand for … in GC…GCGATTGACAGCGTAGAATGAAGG
Reported PBM binding z-score is given for each of the following sequences.

monomer-sequence: TATTGTAGATCAACAGGAGGTTAAGAAAGATCGA
PBM binding z-score: 0.682

monomer-sequence: AATACAGGGTCATCGTAGGCCAGTGTACGCACAG
PBM binding z-score: 3.7

monomer-sequence: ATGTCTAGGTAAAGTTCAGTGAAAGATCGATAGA
PBM binding z-score: 2.59

monomer-sequence: GCGACTGGGGCAACAGCAGGTTACCATAACTTAA
PBM binding z-score: 0.882

monomer-sequence: CCTCGGAGGACAGAAGGTCAGAACTGTCCGCTTT
PBM binding z-score: 3.17

Now look at this one.
Incoming: Please give measured PBM binding z-score of the following entry: AGAATGAGGTTACCTAAGATCAGGGAAACGCTTG
Outgoing: 0.84

* * *

- Test system: PPARg DBDmut:RXRa IVT, anti-PPARg (DBD mutation: PPARg1 K132A/R137A, NR concentration 270 nM, RXRa partner concentration 90 nM)
- experiment: PBM binding z-score (relative to random genomic background probes); higher = stronger binding; sequences stand for … in GC…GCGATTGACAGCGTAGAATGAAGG
Reported PBM binding z-score is given for each of the following sequences.
Quick one: just the number, no unit, thanks!

Here is how some sequences turned out for PBM binding z-score.
monomer-sequence: ACTTACGGGTCAACGAGGTTAAAGCACGCGTATA
PBM binding z-score: 0.985
//
monomer-sequence: CAAACTTGGTCACCGGAAGGTCAAAGTCCGCATG
PBM binding z-score: 0.726
//
monomer-sequence: CCTCGGAGGACAGAAGGGCAGAGCTGTCCGCTTT
PBM binding z-score: -1.35
//
monomer-sequence: TCTGCTAGGTCAACGATTGTCAGCTAATCTGCTA
PBM binding z-score: 0.817
//
monomer-sequence: AGAATGATGTTATACGTAGATCAGGGAAGAAAGT
PBM binding z-score: 1.57
//
monomer-sequence: CCTATTAGATGACCATAAGGGCAACCGAAGCTCG
PBM binding z-score: 0.781

Incoming: Please give measured PBM binding z-score of the following entry: GCGAATGGGGCAAAGCAGGTTACCATAAGGTTGG
Outgoing: -0.887

* * *

Reported PBM binding z-score is given for each of the following sequences.
- Tested on: PPARg:RXRa DBDmut IVT, anti-RXR (DBD mutation: RXRa K156A/R161A, NR concentration 270 nM, RXRa partner concentration 90 nM)
- experiment: PBM binding z-score (relative to random genomic background probes); higher = stronger binding; sequences stand for … in GC…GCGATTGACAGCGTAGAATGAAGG
Quick one: just the number, no unit, thanks!

Here is how some sequences turned out for PBM binding z-score.
monomer-sequence: CCTACTGGGCAAAAGGTCATTGATTCCAATGCTC
PBM binding z-score: 2.57
//
monomer-sequence: GCTATTAGTTGTAAGGGCAACCGAATGATTCTCG
PBM binding z-score: 0.378

Now look at this one.
Incoming: Please give measured PBM binding z-score of the following entry: ACTATTAGTTGAGACGAGGGCATCCGATAGGTTG
Outgoing: 0.0561

* * *

Reported PBM binding z-score is given for each of the following sequences.
- Test system: PPARg:RXRa 90nM:30nM, anti-RXR (NR concentration 90 nM, RXRa partner concentration 30 nM)
- experiment: PBM binding z-score (relative to random genomic background probes); higher = stronger binding; sequences stand for … in GC…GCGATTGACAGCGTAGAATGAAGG
Quick one: just the number, no unit, thanks!

Here is how some sequences turned out for PBM binding z-score.
monomer-sequence: CATATTAGTTGACCATAAGGGCAACCGAAGCTCG
PBM binding z-score: 0.78
//
monomer-sequence: ACTAGGAGGCCAAGGGTCACTCAAGATTAGTCCG
PBM binding z-score: 8.35
//
monomer-sequence: TCTTGTAGATCAGAAGGTTAAGAAAGCTGGCCAA
PBM binding z-score: 3.03
//
monomer-sequence: ATACCAAGGTGATCGTGAGGTCGGTGATACTAAC
PBM binding z-score: -0.222
//
monomer-sequence: GCTTACGGATCAAAGGTTATAGCATGAATAGAAT
PBM binding z-score: 7.07

Incoming: Please give measured PBM binding z-score of the following entry: CGAACTAGGACATTGACAGGACAGTGAATAGTAA
Outgoing: 0.344

Incoming: Please give measured PBM binding z-score of the following entry: TCGAGTAGGTTAGGGGCCTTCAGAATGGCGTCGA
Outgoing: 2.03

Incoming: Please give measured PBM binding z-score of the following entry: CCGACTGGGGCAAAGGTTGCCATACTCAGTACGA
Outgoing: 8.16

Incoming: Please give measured PBM binding z-score of the following entry: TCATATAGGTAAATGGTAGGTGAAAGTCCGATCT
Outgoing: 3.74

Incoming: Please give measured PBM binding z-score of the following entry: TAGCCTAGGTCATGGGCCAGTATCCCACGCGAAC
Outgoing: 2.6

Incoming: Please give measured PBM binding z-score of the following entry: CCTACTGGGCCATTCAGAGGTCATTGACCATATG
Outgoing: 2.25

Incoming: Please give measured PBM binding z-score of the following entry: TCGTGTAGATCAGCAGGTTAAGAAAGCTGGCCAA
Outgoing: 1.42

* * *

- Test system: PPARa:RXRa (NR concentration 270 nM, RXRa partner concentration 90 nM)
- experiment: PBM binding z-score (relative to random genomic background probes); higher = stronger binding; sequences stand for … in GC…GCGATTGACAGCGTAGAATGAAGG
assay-metric: PBM binding z-score
Quick one: just the number, no unit, thanks!

Here is how some sequences turned out for PBM binding z-score.
monomer-sequence: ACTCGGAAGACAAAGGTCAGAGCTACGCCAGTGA
PBM binding z-score: 4.48
//
monomer-sequence: TAGTCTAGGTCATGGGCCAGTATACCACGCGAAC
PBM binding z-score: 4.88
//
monomer-sequence: CCGACTGGGGCAGGGTTACCATAACGCACAGCCA
PBM binding z-score: 1.41

Incoming: Please give measured PBM binding z-score of the following entry: TAGCCTAGGTCATCCGGGCCAGTATAGTGTCGGC
Outgoing: 3.48

Incoming: Please give measured PBM binding z-score of the following entry: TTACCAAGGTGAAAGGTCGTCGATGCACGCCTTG
Outgoing: 5.6

Incoming: Please give measured PBM binding z-score of the following entry: TAGCCTAGGTCCTGCGGGCCAGTATAGTGTCGGC
Outgoing: -1.2

* * *

- Test system: PXR homodimer (NR concentration 270 nM)
- experiment: PBM binding z-score (relative to random genomic background probes); higher = stronger binding; sequences stand for … in GC…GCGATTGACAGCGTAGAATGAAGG
# label = satisfied if PBM binding z-score >= -0.05 else not satisfied

Consider the following illustrative entries.
monomer-sequence: GCTCGGAGGACAAAGTCAGAGCTTTGTCCGTAGA
measurement-target: PXR homodimer (NR concentration 270 nM)
discrete-label: not satisfied

monomer-sequence: GCGACTGGGGCGAAGCAGGTTACCATAAGGTTGG
measurement-target: PXR homodimer (NR concentration 270 nM)
discrete-label: not satisfied

monomer-sequence: AGAATGAGGTTATTAAGATCAGGGATTTGCGGTC
measurement-target: PXR homodimer (NR concentration 270 nM)
discrete-label: satisfied

monomer-sequence: CCTCGGAGGACAGTAGGTCAGAGCTGTCCGCTTT
measurement-target: PXR homodimer (NR concentration 270 nM)
discrete-label: not satisfied

monomer-sequence: TCATATAGGTAAGTGCTAGGTGAAAGTCCGATCT
measurement-target: PXR homodimer (NR concentration 270 nM)
discrete-label: satisfied

Incoming: # bool: PBM binding z-score of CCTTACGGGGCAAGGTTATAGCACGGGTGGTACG >= -0.05
Outgoing: not satisfied

Incoming: # bool: PBM binding z-score of CCAGACAGGTGAAAGTTAACTCAGTCTGGTACGC >= -0.05
Outgoing: not satisfied

Incoming: # bool: PBM binding z-score of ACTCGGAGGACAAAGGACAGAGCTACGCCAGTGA >= -0.05
Outgoing: not satisfied

Incoming: # bool: PBM binding z-score of ATTTCTAGGTAAAGTTCAGTGAAAGATCGATAGA >= -0.05
Outgoing: satisfied

Incoming: # bool: PBM binding z-score of TCATATAGATAAAAGGTGAAAGTCGGTGTGGTAA >= -0.05
Outgoing: satisfied

Incoming: # bool: PBM binding z-score of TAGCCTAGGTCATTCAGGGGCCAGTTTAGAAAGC >= -0.05
Outgoing: not satisfied

Incoming: # bool: PBM binding z-score of TAGCCAAGGTCATGGGCCAGTATACCACGCGAAC >= -0.05
Outgoing: satisfied
